- assaySystem: T1, human chemokine (C-C motif) receptor 8 (CCR8) (human, UniProt P51685 1-355)
- T1 construct: also called hCCR8
- T1 sequence (P51685 whole entry): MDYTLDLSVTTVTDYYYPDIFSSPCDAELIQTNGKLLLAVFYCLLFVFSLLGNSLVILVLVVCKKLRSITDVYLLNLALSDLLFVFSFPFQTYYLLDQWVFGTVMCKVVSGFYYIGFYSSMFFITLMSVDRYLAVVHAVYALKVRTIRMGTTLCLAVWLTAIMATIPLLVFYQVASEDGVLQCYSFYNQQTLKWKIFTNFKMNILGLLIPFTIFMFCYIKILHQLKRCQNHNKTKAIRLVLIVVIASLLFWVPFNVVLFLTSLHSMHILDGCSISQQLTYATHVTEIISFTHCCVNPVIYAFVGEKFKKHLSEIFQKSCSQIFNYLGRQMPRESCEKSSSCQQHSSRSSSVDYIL
- measurementNotes: flow cytometry blocking, human PBMC, CD3+ gate; competitor PE-AB10
experimentalEndpoint: % Blocking (%)
Report as a plain number; the unit % is understood.

binder	readingUnit	% Blocking
anti-CCR8 monoclonal antibody AB5 (antibody, V domains shown, Hybridoma monoclonal; also called antibody 5; clone 5) VH: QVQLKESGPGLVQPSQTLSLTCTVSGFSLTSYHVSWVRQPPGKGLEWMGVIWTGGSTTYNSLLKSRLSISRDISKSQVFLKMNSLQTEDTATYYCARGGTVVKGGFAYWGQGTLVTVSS VL: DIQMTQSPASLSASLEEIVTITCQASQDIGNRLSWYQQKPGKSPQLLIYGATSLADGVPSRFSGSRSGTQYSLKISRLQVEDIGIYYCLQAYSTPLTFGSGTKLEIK	%	-23.1

Turning to the following binder.
INPUT: Please report the recorded % Blocking for anti-CCR8 monoclonal antibody AB10 (antibody, V domains shown, Hybridoma monoclonal; also called antibody 10; clone 10) VH: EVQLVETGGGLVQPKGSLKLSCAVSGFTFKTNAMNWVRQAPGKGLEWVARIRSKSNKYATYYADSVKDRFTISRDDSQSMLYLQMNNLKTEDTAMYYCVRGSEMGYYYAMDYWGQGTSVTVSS VL: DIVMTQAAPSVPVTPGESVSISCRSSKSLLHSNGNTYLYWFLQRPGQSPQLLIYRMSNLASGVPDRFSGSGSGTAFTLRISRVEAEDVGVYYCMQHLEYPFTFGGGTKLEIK .
OUTPUT: 97.5
